# z-score listing for each entry below
# TEST_PROTOCOL: A549 lung cancer cell viability effects, profiling panel, resazurin fluorescence, 24 h, PK04 Diversity Set (AID 1171); note: test concentration not given here
# CONDITIONS_USED: higher = more signal, called active from +8 up or from −8 down
RECORDED_ENDPOINT: z-score

INSERT INTO assay_data (compound, result_value) VALUES
  ('CN(C)CCCC[C@@H]1NC(=O)[C@H]2C[C@@H](C(=O)NCCCCCNC(=O)CS)[C@@H](c3cccc(OCCO)c3)N2C1=O', -0.0288),
  ('CCOC1=C2C(CN(S(=O)(=O)c3ccc(C)cc3)C2c2ccc(C)cc2)C2C(=O)N(c3ccccc3)C(=O)C2C1 (centres undefined)', -0.376),
  ('C=CCNC(=O)[C@@H]1[C@H]2C(=O)O[C@H](c3ccccc3)[C@H](c3ccccc3)N2[C@H](c2ccc(OCCO)cc2)[C@@]12C(=O)Nc1ccc(C#CCCO)cc12', 0.344),
  ('O=C1OCCC=C[C@H]2OC34C=CCN(CCN5CCOCC5)C(=O)[C@H]3N(CCCCCCO)C(=O)[C@@H]4C12 (some centres undefined)', 0.459);

---

# TEST_PROTOCOL: binders of probe aFSTL3 on microarray, primary screen, stem cell growth factor project, biochemical, small-molecule microarray, fluorescence 635/667 (AID 1064);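 note: measures binding of the biotinylated anti-FSTL3 antibody to printed compounds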
# CONDITIONS_USED: higher = more signal
# composite z-score listing for each entry below
RECORDED_ENDPOINT: composite z-score

INSERT INTO assay_data (compound, recorded_endpoint, result_value) VALUES
  ('CCCC[C@H]1OB(O)C[C@H]2C1=C(COc1ccccc1)C[C@H]1C(=O)N(C)C(=O)[C@H]12', 'composite z-score', -0.32),
  ('C=C(CCCC)C(=O)CC[C@H](OC(=O)c1cccnc1)c1ccccc1OCCO', 'composite z-score', 0.453),
  ('O=C(C1N=C(c2ccc(OCCCO)cc2)N(c2ccccc2)O1)N1CCOCC1 (centres undefined)', 'composite z-score', -0.428),
  ('COC(=O)[C@@]1(Cc2ccccc2)[C@H]2c3cc(C(=O)N4CCCC4)n(Cc4cccc5ccccc45)c3C[C@H]2CN1C(=O)c1ccccc1', 'composite z-score', 1.79);

---

# z-score listing for each entry below
# TEST_PROTOCOL: basal RPMI8226 mitochondrial membrane potential changes, profiling panel, cell-based, JC-1 fluorescence, 24 h, 100 nL compound (AID 1169); note: test concentration not given here
# CONDITIONS_USED: RPMI8226 myeloma, JC-1 mitochondrial potential fluorescence, higher = more signal
RECORDED_ENDPOINT: z-score

INSERT INTO results (compound, result_value) VALUES
  ('COc1cc2c(cc1O)C(C1CC1)N(Cc1cc3c(cc1Br)OCO3)CC2 (stereo not drawn)', -0.472),
  ('C#CCN(Cc1ccccc1Br)C(/C=C/c1ccccc1)CO (stereo not drawn)', -1.2),
  ('C=CC[C@]1(C(=O)N2CCCCC2)N=C(c2ccc(OCCCO)cc2)O[C@H]1c1ccccc1', -1.16),
  ('CCCCC(O)C1C=CC2C(=O)N(c3ccccc3)C(=O)C2N1Nc1ccccc1F (stereo not drawn)', -0.425),
  ('COCCCNC(=O)[C@@]1(Cc2ccccc2)N=C(c2ccc(OCCCO)cc2)O[C@H]1c1ccccc1', -1.11),
  ('O=C1O[C@@H](c2ccccc2)[C@@H](c2ccccc2)N2[C@@H](c3ccccc3OCCO)[C@]3(C(=O)Nc4ccc(C#CC5=CCCCC5)cc43)[C@@H](C(=O)Nc3nc4ccccc4s3)[C@H]12', -1.05),
  ('COC(=O)[C@@]1(Cc2ccc(OC)cc2)[C@H]2c3cc(C(=O)N4CCCC4)n(Cc4ccc(OC)c(OC)c4)c3C[C@H]2CN1C(=O)c1ccccc1', -0.16),
  ('COc1cc2c(cc1OC)CN(C(=O)[C@H]1[C@@H]3C(=O)O[C@@H](c4ccccc4)[C@@H](c4ccccc4)N3[C@@H](c3ccc(O)cc3)[C@]13C(=O)Nc1ccc(C#CCNC(N)=O)cc13)CC2', 0.22);

Where these numbers come from: PubChem BioAssay
